Reference for the values: patent US20130345182A1

- Assay Protocol: clinical
- Measurement Setup: human, in vivo
Parameter Measured: concentration at 0.17 h (ng/mL)
Kindly answer with a numeric value in ng/mL, unit omitted.

CCCCc1nc(Cl)c(CO)n1Cc1ccc(-c2ccccc2-c2nn[nH]n2)cc1: 39.7

Next compound, concentration at 0.17 h to be filled in.
Challenge: # input compound: CC[C@H](C)C(=O)O[C@H]1C[C@H](O)C=C2C=C[C@H](C)[C@H](CC[C@@H](O)C[C@@H](O)CC(=O)O)[C@H]21 [Pravastatin sodium, pravastatin sodium] ; wanted: its concentration at 0.17 h
Response given: 2.8

====

- Assay Protocol: clinical
- Measurement Setup: human, in vivo
Parameter Measured: concentration at 12 h (ng/mL)
All answers are understood in ng/mL, so give the number only.

CC[C@H](C)C(=O)O[C@H]1C[C@H](O)C=C2C=C[C@H](C)[C@H](CC[C@@H](O)C[C@@H](O)CC(=O)O)[C@H]21 [Pravastatin sodium, pravastatin sodium]: 1.71

Now for another entry.
Challenge: Reported concentration at 12 h for CCCCc1nc(Cl)c(CO)n1Cc1ccc(-c2ccccc2-c2nn[nH]n2)cc1 : what is it?
Response given: 3.06
